target: G protein-coupled receptor kinase 6 (Homo sapiens); details: at 0.1 µM;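 note: mean percent inhibition of GRK6, GSK PKIS screen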
# inhibition per record follows
Just so you know, I need the unit written after the number.

Provide inhibition value for the following compound: Fc1ccc(-c2ncn(C3CCNCC3)c2-c2ccnc(Oc3ccc4c(c3)OCO4)n2)cc1
0.51%

Supply reported inhibition belonging to this compound: COc1cc(Nc2ncc3c(C)nc(-c4cccc(C(F)(F)F)c4)n3n2)cc(OC)c1OC
1.33%

Return reported inhibition. Input compound: c1ccc(Oc2ccc(Nc3ncc(-c4ccccc4)o3)cc2)cc1
2.54%

Item Nc1nccc(-c2c(-c3ccc(F)cc3)ncn2C2CCC(O)CC2)n1 (stereo not given) : provide inhibition
1.78%

Annotate the compound CN(C)CCCNc1nccc(-c2c(-c3ccc(F)cc3)nn3cc(C(F)(F)F)ccc23)n1 with its measured inhibition.
0.16%
